Sourced from paper PMC12440375

target: EmrE (Escherichia coli, UniProt P23895, K22A); experiment: fluorescence polarization
MEASURE_NAME: Kd
A complete answer gives the number followed by the unit.

// Kd lookup, key: CC1=CC(C)=[N+]2C1=C(c1ccc3c(c1)OCCOCCOCCOCCOCCO3)c1c(C)cc(C)n1[B-]2(F)F [benzo[18]crown-6 BODIPY] 154 nM

###

molecular target: EmrE (Escherichia coli, UniProt P23895)
MEASURE_NAME: Kd

What measured Kd is associated with CC1=CC(C)=[N+]2C1=C(c1ccc3c(c1)OCCOCCOCCOCCOCCO3)c1c(C)cc(C)n1[B-]2(F)F [benzo[18]crown-6 BODIPY] on EmrE (Escherichia coli, UniProt P23895)? 97.4 nM
